Data origin: ChEMBL document CHEMBL2028040

Assay: MMV: Cytotoxicity against human fibroblasts (MRC-5) cells.
Conditions: MRC-5 cells (human fibroblasts)
pIC50: −log10 of the molar value.
READOUT LABEL: pIC50

Fc1ccc2[nH]c3c(NCCCN4CCOCC4)ncnc3c2c1 = < 4.49
Cc1c(C)n(Cc2ccc(F)cc2)c2ccc(C(=O)NCc3ccco3)cc12 = < 4.49
FC(F)(F)c1cccc(CNC2CCN(CCc3ccccc3)CC2)c1 = < 4.49
COc1cccc(NC(=O)[C@H](C(C)C)n2c(=O)[nH]c3ccccc3c2=O)c1 = < 4.49
COc1cccc(C(=O)NC(c2ccc(C)cc2)c2cc(Cl)c3cccnc3c2O)c1 (stereo unspecified) = < 4.49
COc1ccc(C(=O)Nc2ccc(Cl)cc2C(=O)Nc2ccncc2)cc1 = < 4.49
COc1ccc(C(=O)NC(c2ccccc2Cl)c2cc(Cl)c3cccnc3c2O)cc1 (stereo unspecified) = < 4.49
N=c1n(CCN2CCCCC2)c2ccccc2n1CC(=O)c1ccc(Cl)c(Cl)c1 = 4.97
Cc1cccc(-n2ncc3c(O)nc(-n4nc(C)cc4NC(=O)c4cc5ccccc5o4)nc32)c1 = 6.19
CN(C)c1ccc(-c2nc3cc(N)ccc3[nH]2)cc1 = < 4.49
CN1CCN(c2ncnc3c2[nH]c2ccc(Cl)cc23)CC1 = < 4.49
COc1ccc(C2C(C(=O)Nc3cccc(OC)c3)c3ccccc3C(=O)N2C2CCCCC2)cc1 (stereo unspecified) = < 4.49
O=C(NC1CCN(Cc2ccccc2)CC1)c1cc(-c2cccnc2)nc2ccc(Cl)cc12 = < 4.49
CCCCc1ccc(NS(=O)(=O)c2cc3c4c(c2)CCN4C(=O)CC3)cc1 = 5.25
O=C(Nc1ccc(N2CCN(Cc3ccccc3)CC2)cc1)c1cccs1 = < 4.49
CCOc1ccc(CN2CCN(CC(O)COc3ccc(OCC(O)CN4CCN(Cc5ccc(OCC)cc5)CC4)cc3)CC2)cc1 (stereo unspecified) = 4.97
COc1ccc(C(=O)C2CC2c2ccc(Cl)cc2)cc1 (stereo unspecified) = < 4.49
COc1ccc(C(=O)C(CCC(CNC(C)(C)C)C(=O)c2ccc(OC)cc2)CNC(C)(C)C)cc1 (stereo unspecified) = 4.99
O=C(CCc1ccccc1)c1ccccc1OCC(O)CN1CCCCC1 (stereo unspecified) = < 4.49
CCOc1cc(CNC(C)C(O)c2ccccc2)cc(Cl)c1OCC (stereo unspecified) = < 4.49
O=C(c1ccccc1F)N(Cc1ccc(Cl)cc1)c1ccccn1 = < 4.49
